Value source: patent US20190248900A1

target: T1, M2-2; assay: scFv-phage ELISA
T1 construct: also called PD1 mutant M2-2
VALUE KIND: OD490
Keep it simple and answer with nothing but the number.

In: Which OD490 value is on record for PD1-45F1 (antibody, V domains shown, scFv-phage in the screening ELISA; later whole IgG) VH: QVQLVQSGAEVKKPGASVKLSCKASGYTFNSYYVHWVRQAPGQGLEWMGIINPSDGSATYAQKFQGRVTMTSDTSTSSVYMELSSLRSEDTAVYYCARDGNYYDSRGYYYDTFDMWGQGTLITVSS VL: SYELTQDPAVSVALGQTVRITCQGDSLRTYYASWYQQKPGQAPILVIYGKNNRPSGIPDRFSGSSSGNTASLTITAAQAEDEADYYCNSRDSSGKSLVFGGGTKLTVL ?
Out: 4

In: Which OD490 value is on record for PD1-32A6 (antibody, V domains shown, scFv-phage in the screening ELISA; later whole IgG) VH: QVQLVQSGAEVKKPGSSVKVSCKASGDTFTRNAVSWVRQAPGEGLEWMADIIPIFGSANYAQKFQGRLTLTADVSTSTAYMELSSLRSEDTAVYYCARTIEGAFDIWGQGTMVTVSS VL: DIQMTQSPSSVSASVGDRVTITCRASQGIVSWLAWYQQKPGKAPRLLIYRASDLETGVPSRFSGSGSGTDFTLTISSLQPEDVATYYCQQADSFPLTFGGGTKVEIK ?
Out: 2.7
